tested system: T1, recombinant human IL-17A (human, UniProt Q16552 24-155)
T1 construct: Bought recombinant protein (Peprotech AF-200-17); also called Peprotech AF-200-17
T1 sequence (Q16552 24-155): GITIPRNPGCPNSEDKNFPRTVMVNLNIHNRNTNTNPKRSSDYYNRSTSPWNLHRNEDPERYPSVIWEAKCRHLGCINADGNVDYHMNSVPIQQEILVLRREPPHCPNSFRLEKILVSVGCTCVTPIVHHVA
assay protocol: SPR (BIAcore T200), IL-17A coupled to CM5 chip, single-cycle kinetics;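 also: VH domain analytes, kinetic constants obtained by fitting blank-corrected sensorgrams to a 1:1 binding model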
quantity measured: Kd (nM)
Give the value, in units of nM, as a plain number.

Observe how each entry below is paired with its result.
binder	endpoint unit	Kd
Clone 1.2 (VHH) VHH: EVQLVESGGGLVQPGGSLRLSCAASGFTFSSYSMYWVRQAPGKGLEWVAEIKQDGSVQYYVSDVKGRFTISRDNAKNSLYLQMNSLRAEDTAVYYCAKGEILPLYFDYWGQGTLVTVSS	nM	0.555
Clone 1.13 (VHH, Human single VH domain) VHH: EVQLVESGGGLVQPGGSLRLSCAASGFTFSSYGMYWVRQAPGKGLEWVASIEQDGSEKYYVDSVKGRFTISRDNAKNSLYLQMNSLRAEDTAVYYCAKGEILPLYFDYWGQGTLVTVSS	nM	0.84
VH 1.1.1 (clone 1.1 expressed from phagemid vector: with linker residues and His tag) (VHH, Human single VH domain; also called Family 1 (clone 1.1)) VHH: EVQLVESGGGLVQPGGSLRLSCAASGFTFSSYSMYWVRQAPGKGLEWVANIKQDGSEKYYVDSVKGRFTISRDNAKNSLFLQMNSLRAEDTAVYYCAKGEILPLHFDYWGQGTLVTVSS	nM	5

Given the entry Clone 1.22 (VHH, Human single VH domain) VHH: EVQLVESGGGLVRPGGSLRLSCAASGFTFSSYGMYWVRQAPGKGLEWVAKIEQDGSEEYYVDSVKGRFTISRDNAKKSLYLQMNSLRAEDTAVYYCAKGEILPLYFDYWGQGTLVTVSS , report its measured Kd. 0.223
